# Test name: Stability in human serum assessed as compound remaining measured after 24 hrs by HPLC analysis
# Type: ADME, cell-free
# Test parameters: read-out: Stability
Readout type: remaining at 24 h

// recorded remaining at 24 h for "H-DSFALSWL-OH" : ~23%

* * *

# Test name: Stability in human serum assessed as half life by HPLC analysis
# Format: ADME, cell-free
Where a SMILES comes first, the peptide text is derived from it.
Readout type: half-life

Per the record, CC(C)C[C@@H]1NC(=O)[C@H](C)NC(=O)[C@H](Cc2ccccc2)NC(=O)[C@H](CO)NC(=O)[C@H](CC(=O)O)NC(=O)[C@H](CC(C)C)NC(=O)[C@H](Cc2c[nH]c3ccccc23)NC(=O)[C@H](CO)NC1=O (cyclo(ALSWLDSF)) has half-life of > 24 h

* * *

# Test name: Stability in human serum assessed as compound remaining measured after 24 hrs by HPLC analysis
# Format: ADME, cell-free
# Test parameters: read-out: Stability
Where a SMILES comes first, the peptide text is derived from it.
Readout type: remaining at 24 h

Per the record, CC(C)C[C@@H]1NC(=O)[C@H](C)NC(=O)[C@H](Cc2ccccc2)NC(=O)[C@H](CO)NC(=O)[C@H](CC(=O)O)NC(=O)[C@H](CC(C)C)NC(=O)[C@H](Cc2c[nH]c3ccccc23)NC(=O)[C@H](CO)NC1=O (cyclo(ALSWLDSF)) has remaining at 24 h of > 80%
